system: Escherichia coli; experiment: Antimicrobial activity against Escherichia coli DH10B harboring beta-lactamase KPC-2 T237R mutant by agar dilution method; format: functional; settings: K-12 DH10B
So I've got a bunch of compounds here, and I need their MIC values.
Write it as a number; the unit µg/mL goes unstated.

Challenge: Notebook entry, Escherichia coli assay: MIC of `CC(=O)OCC1=C(C(=O)O)N2C(=O)[C@@H](NC(=O)Cc3cccs3)[C@H]2SC1` = ?
Response given: 4

Challenge: Let us now turn to `C[C@@H](O)[C@H]1C(=O)N2C(C(=O)O)=C(S[C@@H]3CN[C@H](C(=O)Nc4cccc(C(=O)O)c4)C3)[C@H](C)[C@H]12`
Response given: 0.06

Challenge: Let us now turn to `C[C@@H](O)[C@H]1C(=O)N2C(C(=O)O)=C(S[C@@H]3CN[C@H](C(=O)N(C)C)C3)[C@H](C)[C@H]12`
Response given: 0.06

Challenge: Let us now turn to `C[C@@H](O)[C@H]1C(=O)N2C(C(=O)O)=C(S[C@@H]3CN[C@H](CNS(N)(=O)=O)C3)[C@H](C)[C@H]12`
Response given: 0.06

Challenge: Let us now turn to `CC1(C)S[C@@H]2[C@H](NC(=O)[C@H](N)c3ccccc3)C(=O)N2[C@H]1C(=O)O`
Response given: 4

Challenge: Let us now turn to `CCN1CCN(C(=O)N[C@@H](C(=O)N[C@@H]2C(=O)N3[C@@H]2SC(C)(C)[C@@H]3C(=O)O)c2ccccc2)C(=O)C1=O`
Response given: 4

Challenge: Let us now turn to `CO/N=C(\C(=O)N[C@@H]1C(=O)N2C(C(=O)O)=C(COC(C)=O)CS[C@H]12)c1csc(N)n1`
Response given: 0.06

###

system: Escherichia coli; experiment: Antimicrobial activity against Escherichia coli DH10B harboring beta-lactamase KPC-2 T237L mutant by agar dilution method; format: functional; conditions: K-12 DH10B
Property Label: MIC (µg/mL)
Write it as a number; the unit µg/mL goes unstated.

Challenge: Notebook entry, Escherichia coli assay: MIC of C[C@@H](O)[C@H]1C(=O)N2C(C(=O)O)=C(S[C@@H]3CN[C@H](C(=O)N(C)C)C3)[C@H](C)[C@H]12 [MEROPENEM] = ?
Response given: 0.06

Challenge: Let us now turn to `C[C@@H](O)[C@H]1C(=O)N2C(C(=O)O)=C(S[C@@H]3CN[C@H](C(=O)Nc4cccc(C(=O)O)c4)C3)[C@H](C)[C@H]12`
Response given: 0.06

Challenge: Let us now turn to CC(=O)OCC1=C(C(=O)O)N2C(=O)[C@@H](NC(=O)Cc3cccs3)[C@H]2SC1 [CEPHALOTHIN]
Response given: 8

Challenge: Let us now turn to C[C@@H](O)[C@H]1C(=O)N2C(C(=O)O)=C(S[C@@H]3CN[C@H](CNS(N)(=O)=O)C3)[C@H](C)[C@H]12 [DORIPENEM]
Response given: 0.06

Challenge: Let us now turn to CCN1CCN(C(=O)N[C@@H](C(=O)N[C@@H]2C(=O)N3[C@@H]2SC(C)(C)[C@@H]3C(=O)O)c2ccccc2)C(=O)C1=O [PIPERACILLIN]
Response given: 16

Challenge: Let us now turn to CO/N=C(\C(=O)N[C@@H]1C(=O)N2C(C(=O)O)=C(COC(C)=O)CS[C@H]12)c1csc(N)n1 [CEFOTAXIME]
Response given: 0.06

Challenge: Let us now turn to CC1(C)S[C@@H]2[C@H](NC(=O)[C@H](N)c3ccccc3)C(=O)N2[C@H]1C(=O)O [AMPICILLIN]
Response given: 64

###

So I've got a bunch of compounds here, and I need their MIC values.
tested on: Escherichia coli; test: Antimicrobial activity against Escherichia coli DH10B harboring beta-lactamase KPC-2 T237W mutant by agar dilution method; assay type: functional; conditions: K-12 DH10B
Write it as a number; the unit µg/mL goes unstated.

Challenge: Data request, read-out MIC, for `CC(=O)OCC1=C(C(=O)O)N2C(=O)[C@@H](NC(=O)Cc3cccs3)[C@H]2SC1`
Response given: 32

Challenge: Let us now turn to `C[C@@H](O)[C@H]1C(=O)N2C(C(=O)O)=C(S[C@@H]3CN[C@H](C(=O)Nc4cccc(C(=O)O)c4)C3)[C@H](C)[C@H]12`
Response given: 0.06

Challenge: Let us now turn to `CC1(C)S[C@@H]2[C@H](NC(=O)[C@H](N)c3ccccc3)C(=O)N2[C@H]1C(=O)O`
Response given: 16

Challenge: Let us now turn to `C[C@@H](O)[C@H]1C(=O)N2C(C(=O)O)=C(S[C@@H]3CN[C@H](C(=O)N(C)C)C3)[C@H](C)[C@H]12`
Response given: 0.06

Challenge: Let us now turn to `CO/N=C(\C(=O)N[C@@H]1C(=O)N2C(C(=O)O)=C(COC(C)=O)CS[C@H]12)c1csc(N)n1`
Response given: 0.06

Challenge: Let us now turn to `CCN1CCN(C(=O)N[C@@H](C(=O)N[C@@H]2C(=O)N3[C@@H]2SC(C)(C)[C@@H]3C(=O)O)c2ccccc2)C(=O)C1=O`
Response given: 8

Challenge: Let us now turn to `C[C@@H](O)[C@H]1C(=O)N2C(C(=O)O)=C(S[C@@H]3CN[C@H](CNS(N)(=O)=O)C3)[C@H](C)[C@H]12`
Response given: 0.06

Challenge: Let us now turn to C[C@@H](O)[C@H]1C(=O)N2C(C(=O)O)=C(SCCNC=N)C[C@H]12 [IMIPENEM ANHYDROUS]
Response given: 0.25

###

system: Klebsiella pneumoniae; assay: Activity of Klebsiella pneumoniae 1534 beta-lactamase KPC-2 T237S mutant by spectrophotometric analysis
So I've got a bunch of compounds here, and I need their kcat values.
Write it as a number; the unit s⁻¹ goes unstated.

Challenge: Notebook entry, Klebsiella pneumoniae assay: kcat of C[C@@H](O)[C@H]1C(=O)N2C(C(=O)O)=C(SCCNC=N)C[C@H]12 [IMIPENEM ANHYDROUS] = ?
Response given: 21

Challenge: Let us now turn to `O=C(Cc1cccs1)N[C@@H]1C(=O)N2C(C(=O)O)=C(/C=C/c3ccc([N+](=O)[O-])cc3[N+](=O)[O-])CS[C@H]12`
Response given: 50

Challenge: Let us now turn to `CCN1CCN(C(=O)N[C@@H](C(=O)N[C@@H]2C(=O)N3[C@@H]2SC(C)(C)[C@@H]3C(=O)O)c2ccccc2)C(=O)C1=O`
Response given: 42

Challenge: Let us now turn to `CC(=O)OCC1=C(C(=O)O)N2C(=O)[C@@H](NC(=O)Cc3cccs3)[C@H]2SC1`
Response given: 65

Challenge: Let us now turn to `CO/N=C(\C(=O)N[C@@H]1C(=O)N2C(C(=O)O)=C(COC(C)=O)CS[C@H]12)c1csc(N)n1`
Response given: 43

###

test system: Klebsiella pneumoniae; test: Activity of Klebsiella pneumoniae 1534 beta-lactamase KPC-2 T237S mutant by spectrophotometric analysis
Could you mark each record fulfilled if its Km falls strictly under 20 µM, and not fulfilled if it equals or exceeds it?

Challenge: Dear colleague, could you confirm whether Km of `CO/N=C(\C(=O)N[C@@H]1C(=O)N2C(C(=O)O)=C(COC(C)=O)CS[C@H]12)c1csc(N)n1` falls below 20 µM? Thanks.
Response given: not fulfilled

Challenge: Let us now turn to C[C@@H](O)[C@H]1C(=O)N2C(C(=O)O)=C(SCCNC=N)C[C@H]12 [IMIPENEM ANHYDROUS]
Response given: not fulfilled

Challenge: Let us now turn to `CC(=O)OCC1=C(C(=O)O)N2C(=O)[C@@H](NC(=O)Cc3cccs3)[C@H]2SC1`
Response given: fulfilled

Challenge: Let us now turn to `O=C(Cc1cccs1)N[C@@H]1C(=O)N2C(C(=O)O)=C(/C=C/c3ccc([N+](=O)[O-])cc3[N+](=O)[O-])CS[C@H]12`
Response given: fulfilled

Challenge: Let us now turn to `CCN1CCN(C(=O)N[C@@H](C(=O)N[C@@H]2C(=O)N3[C@@H]2SC(C)(C)[C@@H]3C(=O)O)c2ccccc2)C(=O)C1=O`
Response given: fulfilled

###

test system: Escherichia coli; assay: Antimicrobial activity against Escherichia coli DH10B harboring plasmid pBC SK(+) carrying wild type beta-lactamase KPC-2 by agar dilution method; assay type: functional; settings: K-12 DH10B
So I've got a bunch of compounds here, and I need their MIC values.
Write it as a number; the unit µg/mL goes unstated.

Challenge: Notebook entry, Escherichia coli assay: MIC of `CCN1CCN(C(=O)N[C@@H](C(=O)N[C@@H]2C(=O)N3[C@@H]2SC(C)(C)[C@@H]3C(=O)O)c2ccccc2)C(=O)C1=O` = ?
Response given: 128

Challenge: Let us now turn to `C[C@@H](O)[C@H]1C(=O)N2C(C(=O)O)=C(S[C@@H]3CN[C@H](CNS(N)(=O)=O)C3)[C@H](C)[C@H]12`
Response given: 0.25

Challenge: Let us now turn to `C[C@@H](O)[C@H]1C(=O)N2C(C(=O)O)=C(S[C@@H]3CN[C@H](C(=O)N(C)C)C3)[C@H](C)[C@H]12`
Response given: 0.25
